# Test system: LOX IMVI melanoma
# Experiment Description: NCI tumour cell line growth inhibition, 48 h
Please provide measured TGI for the entries that follow.

Illustrative cases are given below, each with its answer.
1. COc1ccc(C2C(C(=O)O)=C(COC(C)=O)Oc3cc4c(cc32)OCO4)cc1 (centres undefined)	> 100 µM
2. COc1cc(C2[C@H]3C(=O)N(c4ccc(Cc5ccc(N6C(=O)[C@@H]7ON(c8ccccc8)C(c8cc(OC)c(OC)c(OC)c8)[C@@H]7C6=O)cc5)cc4)C(=O)[C@H]3ON2c2ccccc2)cc(OC)c1OC (some centres undefined)	> 100 µM
3. CC(/C=N/NC1=NCCCCN1)=N\NC1=NCCCCN1	> 100 µM

From here, focus on the item given below.
Ask: # TGI lookup, item COc1ccc(N2CCN(c3ccc4c(c3)NCC(=O)N4)CC2)cc1
Reply: > 100 µM

----------
# Tested on: SNB-75 CNS
# Experiment Description: NCI tumour cell line growth inhibition, 48 h
Lab note: anything with TGI at or over 10 µM counts as criterion met; the rest go in criterion not met.

Would you please look over these solved cases?
1) COc1cc(C(=O)/C=C/c2c(-c3ccc(F)cc3)nc3sccn23)cc(OC)c1OC	criterion not met
2) CCOC(=O)c1c(-c2[nH]c(C(=O)OCc3ccccc3)c(C)c2C(=O)OCC)[nH]c(C(=O)OCc2ccccc2)c1C	criterion met
3) COc1ccc(N2C(=O)C3c4[nH]c5ccccc5c4C4CCC(C(C)C)CC4C3C2=O)cc1 (stereo unspecified)	criterion met

Ask: Is TGI at least 10 µM? Consider O=C1C=CC2(O[C@@H](Cc3ccccc3)[C@H](Cc3ccccc3)O2)C(SC(=O)c2ccccc2)C1 (stereo partly specified)
Reply: criterion not met

Ask: Same read-out for C[C@]12CCC(=O)C=C1CC[C@@H]1[C@@H]2C(=O)C[C@@]2(C)[C@H]1CC[C@]2(O)C(=O)CO ?
Reply: criterion met

Ask: Would you mind doing O=C1Nc2ccccc2NC1C1OC(c2ccccc2)=CC1=O (stereo unspecified) as well?
Reply: criterion met

Ask: Check CCCCCC(/C=C/[C@@H]1CC(=O)C[C@H]1O[Si](C)(C)C(C)(C)C)OCOCCOC (stereo partly specified) too.
Reply: criterion met

----------
# Test system: HCT-116 colon
# Experiment Description: NCI tumour cell line growth inhibition, 48 h
Measure Name: TGI (µM)
One number for each entry, in µM.

Previously resolved entries follow.
1. Cc1cc2nc3ccc(N=Nc4ccc(N(C)C)cc4)cc3n(-c3ccccc3)c-2cc1=N	0.116
2. CC(C)(C)c1ccc(C(=O)N/N=C/c2ccc(O)cc2O)cc1	11.5
3. O=C(Cc1ccc(/C=C/C(=O)c2ncc[nH]2)cc1)Nc1ccc(Br)cc1	2.54
4. Cc1cn(C2C=CC(=O)C(C)O2)c(=O)[nH]c1=O (configuration not stated)	24.6

Consider now this further compound.
Ask: # get_value(readout='TGI', item= N/C(=N\OC(=O)NC(Cl)=C(Cl)Cl)c1cc(C(F)(F)F)cc(C(F)(F)F)c1 )
Reply: 35.5

----------
# System: SN12C renal
# Experiment Description: NCI tumour cell line growth inhibition, 48 h
Measure Name: TGI

As a guide, the following entries are already answered.
1. COc1ccc(C2C(C(=O)O)=C(COC(C)=O)Oc3cc4c(cc32)OCO4)cc1 (configuration not stated)	> 100 µM
2. COc1cc(/C=C(\NC(=O)c2ccccc2)c2nc3ccc([N+](=O)[O-])cc3[nH]2)cc(OC)c1OC	> 100 µM
3. CC(=O)Nc1ccc(-c2nnc(SCC(=O)Nc3ccccc3[N+](=O)[O-])o2)cc1	> 100 µM
4. c1ccc(C(CCN2CCCC2)c2ccccn2)cc1 (configuration not stated)	> 100 µM
5. COC(=O)C1(NC(=O)C(N)CC(=O)O)C(C)C1C (configuration not stated)	> 100 µM
6. Clc1ccc(OCC2NC3C=CC32)cn1 (configuration not stated)	> 100 µM
7. Cc1c(N2C(=O)/C(=C\c3ccc(O)cc3)N=C2c2ccccc2)c(=O)n(-c2ccccc2)n1C	> 100 µM
8. COc1cc2ccc(CC#N)cc2cc1OC	> 100 µM
9. CC(C)(C)c1ccc(C(=O)N/N=C/c2ccc(O)cc2O)cc1	13 µM
10. CC[C@@]1(O)C(=O)OCc2c1cc1n(c2=O)Cc2c-1nc1ccccc1c2/C=N\NC(=O)C(N)CS (some centres not stated)	> 22.8 µM

Please state, for each entry, its recorded TGI.
1. O=C1C2Cc3ccccc3CN2C(=O)N1CN1CCN(CN2C(=O)C3Cc4ccccc4CN3C2=O)CC1 (configuration not stated)
2. COc1ccc(-c2nnc3n(C)c(=O)c4ccccc4n23)cc1O

Reply:
1: > 100 µM; 2: > 100 µM

Count: 2. Required value per item: TGI.
1. CC(=O)O[C@H]1CC[C@@]2(C)C(=CC[C@@H]3[C@@H]2CC[C@]2(C)c4nc(N)c(C#N)cc4C[C@@H]32)C1
2. NCCCn1c2c(c3ccc([N+](=O)[O-])cc3c1=O)C(=O)c1cc3c(cc1-2)OCO3

Reply:
1. > 100 µM
2. 0.385 µM

Hi there! I need TGI for each item below, if you can.
1. CSc1nc2c(nc(N)n2C2OCC(O)C(O)C2O)c(=O)[nH]1 (configuration not stated)
2. Cc1ccccc1NC(=S)N/N=C(/c1ccccc1)c1ccccn1
3. Cc1ccnc(NC(=S)Nc2ccccc2Cl)c1
4. CC(C)O/C=C1\C(=O)C2(SCCS2)[C@H]2CCCC[C@@H]12
5. O=C(c1ccc(O)cc1)c1ccc(C(=O)c2ccc(O)cc2)cc1
6. Oc1c(I)cc(I)cc1CNCCCN(Cc1ccccn1)Cc1ccccn1

Reply:
1: > 100 µM; 2: 10 µM; 3: > 100 µM; 4: > 100 µM; 5: > 100 µM; 6: 2.12 µM

Each of the following entries comes with a recorded value; kindly state TGI for each.
1. c1ccc([C@H]2CN3CCSC3=N2)cc1
2. CN(C)c1nc(N(C)C)nc(N(C)CN(C)c2nc(N(C)C)nc(N(C)C)n2)n1

Reply:
1: > 100 µM; 2: > 100 µM

----------
# Tested on: MDA-MB-435
Could you please pick one outcome from this set? true (active), false (inactive)

1. C[C@@H]1CN(Cc2ccc(/C=C/c3n[nH]c4ccc5nc(-c6cn[nH]c6C(F)(F)F)c6c(c5c34)CCCC6)cc2)C[C@H](C)O1	false
2. O=C1CC(c2ccccc2)Cc2nc3ccc(Cl)cc3cc21 (centres undefined)	true
3. O=C1NC(=O)c2c1c1c3ccccc3ccc1c1[nH]c3ccc(Br)cc3c21	false

Ask: Which outcome was assigned to COC(=O)C1CC2(c3ccc(C)cc3)C(c3ccc(C)cc3)=C(c3ccc(C)cc3)C1(c1ccc(C)cc1)S2=O (centres undefined) in this test?
Reply: false

Ask: CCOC(=O)Nc1nc2c(F)c(F)c(F)cc2s1 , same question.
Reply: false

Ask: Another compound to look at: NC(=O)Nc1ccc2ncnc(Nc3ccc(Cl)cc3)c2c1
Reply: false

Ask: Do the same for COc1cc2c(cc1OCCCCC(=O)Nc1ccc(-c3nc4ccccc4s3)cc1)N=C[C@@H]1CCCN1C2=O please
Reply: false

Ask: Try this compound too: O=C(Cc1ccccc1)Nc1nnc(CCSCCc2nnc(NC(=O)Cc3ccccc3)s2)s1
Reply: false

Ask: What do you get for CN(C)CCCNC(=O)c1cc2c3ccccc3[nH]c2c2ncccc12 ?
Reply: false

Ask: Now the compound O=S(=O)(NC(=S)Nc1ccccc1)c1ccc(N2N=C3c4ccccc4CC3C2c2ccc(Cl)cc2)cc1 (centres undefined)
Reply: false

----------
# Test system: UO-31 renal
# Experiment Description: NCI tumour cell line growth inhibition, 48 h
Provide the reported TGI of each item.

Completed entries (count: 8):
1) COc1ccc(CNc2nc3ccccc3nc2-c2cccs2)cc1OC	> 100 µM
2) CN(N)C(=O)NCCCl	> 100 µM
3) Brc1cccc(C2(CCCC3(c4cccc(Br)n4)OCCO3)OCCO2)n1	> 100 µM
4) COc1cc(C2[C@H]3C(=O)N(c4ccc(Cc5ccc(N6C(=O)[C@@H]7ON(c8ccccc8)C(c8cc(OC)c(OC)c(OC)c8)[C@@H]7C6=O)cc5)cc4)C(=O)[C@H]3ON2c2ccccc2)cc(OC)c1OC (some centres undefined)	> 100 µM
5) CC1CCC2c3c([nH]c4ccccc34)C3C(=O)N(C4CCCCC4)C(=O)C3C2C1 (centres undefined)	37.2 µM
6) CC(=O)NNC(=O)c1nn(-c2ccc(Cl)cc2)cc1OC(C)=O	> 86.8 µM
7) COc1cc(C2c3cc4c(cc3C3OC(=O)C2C3CO)OCO4)cc(OC)c1OC (centres undefined)	> 100 µM
8) CC(=O)Nc1ccc(-c2nnc(SCC(=O)Nc3ccccc3[N+](=O)[O-])o2)cc1	> 100 µM

Now take the following molecule into account.
Ask: Recorded TGI of O=C(N/C(=C\c1ccc([N+](=O)[O-])cc1)c1nc2[nH]c(=S)[nH]c(=O)c2[nH]1)c1ccccc1 , please.
Reply: > 100 µM
